Kindly supply the reported folding stability dG values for the records listed here.
B1: EEHEE_rd4_0647 (parent)
chain: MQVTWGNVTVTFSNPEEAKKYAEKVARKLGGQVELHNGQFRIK

Variants of: B1
method_summary: folding stability dG (cDNA display proteolysis); higher = more stable
experimental_context: PBS, room temperature
Answers are plain numbers, in kcal/mol.

Study these solved cases before continuing.
>  <variant>
Q2M

>  <readout>
folding stability dG

>  <measured>
2.71

$$$$
>  <variant>
F40K

>  <readout>
folding stability dG

>  <measured>
0.481

$$$$
>  <variant>
E16P

>  <readout>
folding stability dG

>  <measured>
1.4

$$$$
>  <variant>
N7V

>  <readout>
folding stability dG

>  <measured>
2.33

$$$$
>  <variant>
G38F

>  <readout>
folding stability dG

>  <measured>
1.73

$$$$
>  <variant>
E34S

>  <readout>
folding stability dG

>  <measured>
2.23

$$$$
>  <variant>
K28Y

>  <readout>
folding stability dG

>  <measured>
2.97

$$$$
>  <variant>
A26W

>  <readout>
folding stability dG

>  <measured>
1.17

$$$$
>  <variant>
M1S

>  <readout>
folding stability dG

>  <measured>
2.61

$$$$
>  <variant>
G6K

>  <readout>
folding stability dG

>  <measured>
2.1

$$$$

// query Query (variant): "F12C" ; field requested: folding stability dG
// result 2.49
